Tested on: LPS triggered IL-10 secretion in monocytes
Experiment: Monocytes assay: LPS-triggered IL-10 (ELISA)
Type: cell-based, human
Conditions: Homo sapiens, Monocyte, LPS-triggered IL-10 induction, median maximal fold change vs LPS only, read-out: IL-10 FCmax median
# maximal fold induction values compiled below

COMPOUND: COc1cc(-c2cnc3cc(C4(C#N)COC4)ccn23)cc(OC(F)F)c1C(=O)NC1CC1
maximal fold induction: 1.5 to 4.5
--
COMPOUND: COc1cc(-c2cnc3cc(C4(O)COC4)ccn23)cc(OC(F)F)c1C(=O)NC1CC1
maximal fold induction: < 1.5
--
COMPOUND: COc1cc(-c2cnc3cc(C(C)(O)CN4CC(F)(F)C4)ccn23)cc(OC(F)F)c1C(=O)NC1CC1 (centres unmarked)
maximal fold induction: < 1.5
--
COMPOUND: COc1cc(-c2cnn3cc(C4(C#N)CCOCC4)ccc23)cc(OC(F)F)c1C(=O)NC1CC1
maximal fold induction: < 1.5
--
COMPOUND: COc1cc(-c2cnc3cc(C(C)(C)C#N)ccn23)cc(OC(F)F)c1C(=O)N1CC(C#N)C1
maximal fold induction: 1.5 to 4.5
--
COMPOUND: COc1cc(-c2cnc3cc(C(C)(C)F)ccn23)cc(OC(F)F)c1C(=O)NC1CC1
maximal fold induction: 1.5 to 4.5
--
COMPOUND: COc1cc(-c2cnn3cc(C4COC4)ccc23)cc(OC(F)F)c1C(=O)N[C@@H]1C[C@@H]1F
maximal fold induction: 1.5 to 4.5
--
COMPOUND: CCC(C)(C#N)c1ccn2c(-c3cc(OC)c(C(=O)NC4CC4)c(OC(F)F)c3)cnc2c1 (centres unmarked)
maximal fold induction: < 1.5

---

Biological target: SIK3 (Homo sapiens, UniProt Q9Y2K2)
Construct: purchased SignalChem S12-11G-100
Sequence (Q9Y2K2 59-365 limits assumed): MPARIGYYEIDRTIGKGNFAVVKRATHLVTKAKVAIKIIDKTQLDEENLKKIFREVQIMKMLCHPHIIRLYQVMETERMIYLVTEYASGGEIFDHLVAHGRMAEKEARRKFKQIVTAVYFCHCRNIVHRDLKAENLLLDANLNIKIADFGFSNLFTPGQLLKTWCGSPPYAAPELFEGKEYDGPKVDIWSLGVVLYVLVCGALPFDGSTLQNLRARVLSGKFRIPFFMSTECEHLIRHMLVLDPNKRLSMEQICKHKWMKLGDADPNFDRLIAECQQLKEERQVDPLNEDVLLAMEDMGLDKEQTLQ
Assay: ADP-Glo kinase assay, SIK3
Type: biochemical
# IC50 values compiled below

COMPOUND: CNC(=O)COCC(C)(C)c1ccc2c(-c3cc(OC)c(C(=O)N[C@@H]4C[C@@H]4F)c(OC(F)F)c3)cnn2c1
IC50: 0.01 to 10 nM

COMPOUND: COc1cc(-c2cnc3cc(C(C)(O)Cn4ccnc4)ccn23)cc(OC(F)F)c1C(=O)NC1CC1 (centres unmarked)
IC50: 10 to 100 nM

COMPOUND: COc1cc(-c2cnn3cc(C(C)(C)c4nc(C)no4)ccc23)cc(OC(F)F)c1C(=O)NC1CC1
IC50: 10 to 100 nM

COMPOUND: COc1cc(-c2cnc3cc(C4CCCNC4)ccn23)cc(OC)c1C(=O)NCC(F)(F)F (centres unmarked)
IC50: 10 to 100 nM

COMPOUND: COc1cc(-c2cnn3cc(C(C)(C)C#N)ccc23)cc(F)c1C(=O)NC1CC1
IC50: 100 to 500 nM

COMPOUND: COc1cc(-c2cnc3cc(C4(C#N)CCCC4)ccn23)cc(OC(F)F)c1C(=O)NC1CC1
IC50: 0.01 to 10 nM

COMPOUND: COCC(C)(C#N)c1ccn2c(-c3cc(OC)c(C(=O)NC4CC4)c(OC(F)F)c3)cnc2c1 (centres unmarked)
IC50: 10 to 100 nM

COMPOUND: COc1cc(-c2cnn3cc(C(C)(C)C#N)ccc23)cc(OC)c1C(=O)NC1CC1
IC50: 10 to 100 nM

---

# pIC50 values compiled below
Target: SIK3 (Homo sapiens, UniProt Q9Y2K2)
Construct: purchased SignalChem S12-11G-100
Assay: 33P radioactive kinase assay, SIK3
Assay type: biochemical
Conditions: 33P radioactive assay; AMARA 7 μM; 15 μM ATP; 80 min; average IC50
pIC50: −log10 of the molar value.
OUTCOME MEASURE: pIC50

MOLECULE: COc1cc(-n2cnc3cc(C(C)(C)C#N)ccc32)cc(OC)c1C(=O)NC1CC1
TEST SYSTEM: SIK3 (Homo sapiens, UniProt Q9Y2K2)
VAL: < 6.30

MOLECULE: COc1cc(-c2cnc3cc(C(C)(C)C#N)ccn23)cc2c1C(=O)NCC2
TEST SYSTEM: SIK3 (Homo sapiens, UniProt Q9Y2K2)
VAL: 7.00 to 8.00

MOLECULE: COc1cc(-c2cnc3cc(C(C)(C)C#N)ccn23)cc(OC(F)F)c1C(=O)NC1CC1
TEST SYSTEM: SIK3 (Homo sapiens, UniProt Q9Y2K2)
VAL: 8.00 to 11.00

MOLECULE: COc1cc(-n2cnc3cc(C4CCCNC4)ccc32)cc(OC)c1C(=O)NCC(F)(F)F (centres unmarked)
TEST SYSTEM: SIK3 (Homo sapiens, UniProt Q9Y2K2)
VAL: 6.30 to 7.00

MOLECULE: COc1cc(-c2cnc3cc(C4CCN(C(=O)OC(C)(C)C)CC4)ccn23)cc(OC)c1C(=O)NCC(F)(F)F
TEST SYSTEM: SIK3 (Homo sapiens, UniProt Q9Y2K2)
VAL: 7.00 to 8.00

MOLECULE: COc1cc(-n2cnc3cc(C4CCCN(CC#N)C4)ccc32)cc(OC)c1C(=O)NCC(F)(F)F (centres unmarked)
TEST SYSTEM: SIK3 (Homo sapiens, UniProt Q9Y2K2)
VAL: 6.30 to 7.00

MOLECULE: COc1cc(-n2cnc3cc(C4(C#N)CCC4)ccc32)cc(OC)c1C(=O)NCC(F)(F)F
TEST SYSTEM: SIK3 (Homo sapiens, UniProt Q9Y2K2)
VAL: < 6.30

MOLECULE: COc1cc(-c2cnc3cc(C4(C#N)CC4)ccn23)cc(OC(F)F)c1C(=O)NC1CC1
TEST SYSTEM: SIK3 (Homo sapiens, UniProt Q9Y2K2)
VAL: 8.00 to 11.00

---

Molecular target: SIK3 (Homo sapiens, UniProt Q9Y2K2)
Construct: purchased SignalChem S12-11G-100
Experiment: ADP-Glo kinase assay, SIK3
Type: biochemical
pIC50: −log10 of the molar value.
# pIC50 values compiled below

COMPOUND: CC[C@](C)(O)c1ccn2c(-c3cc(OC)c(C(=O)NC4CC4)c(OC(F)F)c3)cnc2c1 (single isomer, unassigned)
TEST SYSTEM: SIK3 (Homo sapiens, UniProt Q9Y2K2)
pIC50: 7.00 to 8.00
//
COMPOUND: COc1cc(-c2cnc3cc(C(C)(C)C#N)ccn23)cc(OC(F)F)c1C(=O)NCC1CC1
TEST SYSTEM: SIK3 (Homo sapiens, UniProt Q9Y2K2)
pIC50: 8.00 to 11.00
//
COMPOUND: COc1cc(-c2cnc3cc(C4COC4)ccn23)cc(OC(F)F)c1C(=O)N[C@@H]1C[C@@H]1F
TEST SYSTEM: SIK3 (Homo sapiens, UniProt Q9Y2K2)
pIC50: 8.00 to 11.00
//
COMPOUND: COc1cc(-c2cnn3cc(C(C)(C)COS(C)(=O)=O)ccc23)cc(OC(F)F)c1C(=O)N[C@@H]1C[C@@H]1F
TEST SYSTEM: SIK3 (Homo sapiens, UniProt Q9Y2K2)
pIC50: 8.00 to 11.00
//
COMPOUND: COc1cc(-c2cnc3cc(C(C)C#N)ccn23)cc(OC(F)F)c1C(=O)NC1CC1 (stereo not shown)
TEST SYSTEM: SIK3 (Homo sapiens, UniProt Q9Y2K2)
pIC50: 8.00 to 11.00
//
COMPOUND: COc1cc(-c2cnc3cc(C(C)(C)C#N)ccn23)cc(OC(F)F)c1C(=O)NC1CC(F)(F)C1
TEST SYSTEM: SIK3 (Homo sapiens, UniProt Q9Y2K2)
pIC50: 7.00 to 8.00
//
COMPOUND: COc1cc(-c2cnc3cc([C@@](C)(C#N)CO)ccn23)cc(OC(F)F)c1C(=O)NC1CC1 (single isomer, unassigned)
TEST SYSTEM: SIK3 (Homo sapiens, UniProt Q9Y2K2)
pIC50: 7.00 to 8.00

---

System: LPS triggered IL-10 secretion in monocytes
Test: Monocytes assay: LPS-triggered IL-10 (ELISA)
Assay type: cell-based, human
Settings: Homo sapiens, Monocyte, LPS-triggered IL-10 induction, median maximal fold change vs LPS only, read-out: IL-10 FCmax median
# maximal fold induction values compiled below

QUERY SMILES: COc1cc(-c2cnc3cc(C4(O)CCC4)ccn23)cc(OC(F)F)c1C(=O)NC1CC1
maximal fold induction: 1.5 to 4.5
--
QUERY SMILES: COc1cc(-c2cnc3cc(C4(F)COC4)ccn23)cc(OC(F)F)c1C(=O)NC1CC1
maximal fold induction: < 1.5
--
QUERY SMILES: COc1cc(-c2cnn3cc(C4(C#N)CCOCC4)ccc23)cc(OC(F)F)c1C(=O)N[C@@H]1C[C@@H]1F
maximal fold induction: < 1.5
--
QUERY SMILES: COc1cc(-c2cnn3cc(C(C)(C)C#N)cnc23)cc(OC(F)F)c1C(=O)N[C@@H]1C[C@@H]1F
maximal fold induction: < 1.5
